Reference source for all entries: patent US20230302148A1

- ASSAY TARGET: human GCG receptor (human, UniProt P47871 26-477)
- Sequence (P47871 26-477): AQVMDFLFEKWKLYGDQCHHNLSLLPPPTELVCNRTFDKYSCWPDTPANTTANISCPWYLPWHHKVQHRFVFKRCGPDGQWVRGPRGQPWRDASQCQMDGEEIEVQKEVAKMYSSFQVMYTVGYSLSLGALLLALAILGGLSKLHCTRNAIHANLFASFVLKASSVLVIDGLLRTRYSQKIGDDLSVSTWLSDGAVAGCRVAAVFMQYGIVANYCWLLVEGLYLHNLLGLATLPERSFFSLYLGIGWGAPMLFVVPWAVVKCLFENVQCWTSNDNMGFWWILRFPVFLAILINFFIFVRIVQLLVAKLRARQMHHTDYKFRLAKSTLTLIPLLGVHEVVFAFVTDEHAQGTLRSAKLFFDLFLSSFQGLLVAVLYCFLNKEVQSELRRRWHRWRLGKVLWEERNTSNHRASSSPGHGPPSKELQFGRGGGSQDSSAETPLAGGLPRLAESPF
- ASSAY SUMMARY: cell-based or functional assay
Bridges are numbered along the chain shown (N, C = ends). Where no end group is shown, it is not given here. [ ]: non-standard residue; d: D form. The star is where a group is joined. Acetyl(2-(4-imidazolyl)) = O=C(Cc1c[nH]cn1)*; Aib = CC(C)(N)C(=O)O
Entries whose In vitro activity relative to native peptide (%) vs. Glucagon is below 1% take satisfied; entries at or above 1% take not satisfied.

BINDER: H[Aib]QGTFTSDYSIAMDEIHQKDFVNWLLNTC (bridge 16-20) [triple agonist of SEQ ID NO: 57]
DISCRETE LABEL: satisfied

I wonder whether {Acetyl(2-(4-imidazolyl))}-[Aib]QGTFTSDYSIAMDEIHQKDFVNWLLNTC (bridge 15-19) [triple agonist of SEQ ID NO: 87] has In vitro activity relative to native peptide (%) vs. Glucagon below 1%. Can you tell?
satisfied

In plain terms, does H[Aib]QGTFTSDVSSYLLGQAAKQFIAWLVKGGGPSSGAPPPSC [triple agonist of SEQ ID NO: 3] come in under 1% for In vitro activity relative to native peptide (%) vs. Glucagon?
satisfied

For H[Aib]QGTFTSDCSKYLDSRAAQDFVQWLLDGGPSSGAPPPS [triple agonist of SEQ ID NO: 26] , is the recorded In vitro activity relative to native peptide (%) vs. Glucagon below the cut-off of 1%?
satisfied

# TODO verify In vitro activity relative to native peptide (%) vs. Glucagon < 1% strictly for this binder: {Acetyl(2-(4-imidazolyl))}-[Aib]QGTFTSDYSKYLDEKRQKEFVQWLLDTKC (bridge 15-19) [triple agonist of SEQ ID NO: 89]
satisfied

In plain terms, does H[Aib]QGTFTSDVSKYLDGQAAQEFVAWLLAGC [triple agonist of SEQ ID NO: 9] come in under 1% for In vitro activity relative to native peptide (%) vs. Glucagon?
satisfied
